# System: HEK-293T
# ASSAY COMMENT: Multiplex assay against HEK293T
# Assay type: toxicity, cell-based
# TEST PARAMETERS: human, 12 h, 1 µM, compound concentration 1 uM, replicate 2
Item-by-item account of Population Fragmented Nuclei (%)
// return numeric value only (unit: %, not printed)

Worked cases, answers included:
Measured Population Fragmented Nuclei (%), Cc1nc(Nc2n[nH]c3c2CN(C(=O)N[C@H](CN(C)C)c2ccccc2)C3(C)C)c2sccc2n1 [PF-03758309] : 5

Measured Population Fragmented Nuclei (%), CN1CCN(CCOc2cc(OC3CCOCC3)c3c(Nc4c(Cl)ccc5c4OCO5)ncnc3c2)CC1 [SARACATINIB] : 4

Measured Population Fragmented Nuclei (%), Cc1[nH]c(/C=C2\C(=O)Nc3ccc(S(=O)(=O)N(C)c4cccc(Cl)c4)cc32)c(C)c1C(=O)N1CCN(C)CC1 : 6

---
Measured Population Fragmented Nuclei (%), OC1(c2ccc(Cl)cc2)CCN(Cc2c[nH]c3ccccc23)CC1 : 6

====

Item-by-item account of Population Healthy Nuclei (%)
# System: HEK-293T
# ASSAY COMMENT: Multiplex assay against HEK293T
# Format: toxicity, cell-based
# TEST PARAMETERS: human, 12 h, 10 µM, compound concentration 10 uM, replicate 2
// return numeric value only (unit: %, not printed)

Worked cases, answers included:
Measured Population Healthy Nuclei (%) (HEK-293T), entry Cn1cc(-c2[nH]c3cc(NC(=O)[C@H](N)C4CCCCC4)cc4c3c2C=NNC4=O)cn1 : 17

Measured Population Healthy Nuclei (%) (HEK-293T), entry CN(C)C(=O)/C(C#N)=C/c1ccc(-c2nc3cnc4[nH]ccc4c3n2C2CCCCC2)o1 : 43

Measured Population Healthy Nuclei (%) (HEK-293T), entry CN(C)C(=O)N[C@H]1CC[C@H](CCN2CCN(c3cccc(Cl)c3Cl)CC2)CC1.Cl [CARIPRAZINE HYDROCHLORIDE] : 16

Measured Population Healthy Nuclei (%) (HEK-293T), entry COc1cc2nccc(Oc3ccc(NC(=O)Nc4cc(C)on4)c(Cl)c3)c2cc1OC.O : 30

Measured Population Healthy Nuclei (%) (HEK-293T), entry CN1CCC[C@@H]1CCO[C@](C)(c1ccccc1)c1ccc(Cl)cc1.O=C(O)/C=C/C(=O)O [CLEMASTINE FUMARATE] : 15

Measured Population Healthy Nuclei (%) (HEK-293T), entry CNc1nc(NCc2ccc(NS(C)(=O)=O)cc2Cl)cc(-c2ccccn2)n1 : 18

---
Measured Population Healthy Nuclei (%) (HEK-293T), entry CC(C)(O)CNc1ncc(-c2ccnc(Nc3ccnc(Cl)c3)n2)c(CC2CC2)n1 : 3

Measured Population Healthy Nuclei (%) (HEK-293T), entry CN1CCN(c2ccc(OC(F)(F)F)c(Nc3ncc4c(n3)-c3c(c(C(N)=O)nn3CCO)CC4)c2)CC1 [ONVANSERTIB] : 30

Measured Population Healthy Nuclei (%) (HEK-293T), entry C=CC(=O)Nc1ccc2ncnc(Nc3ccc(OCc4cccc(F)c4)c(Cl)c3)c2c1.Cc1ccc(S(=O)(=O)O)cc1 : 21

Measured Population Healthy Nuclei (%) (HEK-293T), entry C[C@@H](NCCCc1cccc(C(F)(F)F)c1)c1cccc2ccccc12.Cl [CINACALCET HYDROCHLORIDE] : 11

Measured Population Healthy Nuclei (%) (HEK-293T), entry COc1ncc(-c2ccc3nccc(-c4ccnnc4)c3c2)cc1NS(=O)(=O)c1ccc(F)cc1F [OMIPALISIB] : 12

Measured Population Healthy Nuclei (%) (HEK-293T), entry COc1cc(-n2cnc3cc(-c4ccc(Cl)cc4)sc3c2=O)ccc1OCCN1CCCC1 : 15

Measured Population Healthy Nuclei (%) (HEK-293T), entry c1cn2cc(-c3ccc4cn[nH]c4c3)nc(Nc3ccc(N4CCOCC4)cc3)c2n1 [ENTOSPLETINIB] : 8

Measured Population Healthy Nuclei (%) (HEK-293T), entry C=CC(=O)Nc1cccc(C(=O)Nc2ccc(Nc3cc(-c4[nH]c(SC)nc4C)ccn3)cc2)c1 : 29

Measured Population Healthy Nuclei (%) (HEK-293T), entry O=C1NCN(c2ccccc2)C12CCN(CCCOc1ccc(F)cc1)CC2 [SPIRAMIDE] : 34

Measured Population Healthy Nuclei (%) (HEK-293T), entry C=CC(=O)Nc1cc2c(Nc3ccc(F)c(Cl)c3)ncnc2cc1OCCCN1CCOCC1.Cl.Cl [CANERTINIB DIHYDROCHLORIDE] : 88

Measured Population Healthy Nuclei (%) (HEK-293T), entry Cc1[nH]c(/C=C2\C(=O)Nc3ccc(S(=O)(=O)N(C)c4cccc(Cl)c4)cc32)c(C)c1C(=O)N1CCN(C)CC1 : 40

Measured Population Healthy Nuclei (%) (HEK-293T), entry CCN(CC)CCCCNc1ncc2cc(-c3cc(OC)cc(OC)c3)c(NC(=O)NC(C)(C)C)nc2n1 [PD-173074] : 85

Data origin: ChEMBL document CHEMBL4689842
